Record form. Attribute: remaining at 1 h, 100 µM. Fill in for each entry.
# test.details: Stability of the compound in pH 3 solution at 10^-4 M after 1 hr by HPLC analysis
# Type: physicochemical
# condition.parameters: read-out: Stability
Write the answer as a number in %, unit excluded.

IN: Which remaining at 1 h, 100 µM is reported for this compound? Clc1nc(NCc2ccco2)c2ncn(C3CCCO3)c2n1 (stereo not drawn)
OUT: 98.8

IN: // query: c1csc(CNc2ncnc3c2ncn3C2CCCO2)c1 (stereo not drawn)
OUT: 94.6

IN: Input c1nc(NCC2CCCO2)c2ncn(C3CCCO3)c2n1 (stereo not drawn)
OUT: 94.3

This collection of values is drawn from ChEMBL document CHEMBL4229381.
